Where these numbers come from: ChEMBL document CHEMBL1961873

- assayed-target: Aurora kinase C (Homo sapiens) (UniProt Q9UQB9)
- Sequence (Q9UQB9 whole entry): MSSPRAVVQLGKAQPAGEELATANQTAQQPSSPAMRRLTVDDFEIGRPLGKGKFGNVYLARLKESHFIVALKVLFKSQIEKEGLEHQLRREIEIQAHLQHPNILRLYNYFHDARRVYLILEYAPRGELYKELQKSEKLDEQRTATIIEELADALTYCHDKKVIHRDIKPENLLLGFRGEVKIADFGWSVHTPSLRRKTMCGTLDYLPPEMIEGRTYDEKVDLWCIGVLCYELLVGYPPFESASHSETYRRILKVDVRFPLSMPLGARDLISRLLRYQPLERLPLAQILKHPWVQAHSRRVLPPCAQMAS
- condition-info: at 0.1 µM
quantity-measured: inhibition (%)
Write the answer as a number in %, unit excluded.

Answered cases to consult:
INSERT INTO assay_data (molecule, value_measured) VALUES
  ('COC(=O)Nc1nc2cc(Oc3ccc(NC(=O)Nc4cccc(C(=O)O)c4)cc3)ccc2[nH]1', 0.03),
  ('COc1cccc(-n2ncc3c(N/N=C/c4cccc(F)c4)ncnc32)c1', -2.12),
  ('CCn1c(-c2nonc2N)nc2c(N3CCCC3)nccc21', 0.17),
  ('CCn1c(-c2nonc2N)nc2c(C#CC(C)(C)O)nc(CN3CCCC3)cc21', 0.15),
  ('Nc1ncnc2occ(-c3ccc(NC(=O)Nc4cc(C(F)(F)F)cc(C(F)(F)F)c4)cc3)c12', 1.5);

input: Entry under review: COc1ccc(COc2ccc(Cc3cnc(N)nc3N)cc2OC)cc1 . Reported inhibition?
output: 2.97

input: Entry under review: COc1cc(C)c(NC(=O)CN(C)C)cc1Nc1nc(Nc2cccc(F)c2C(N)=O)c2cc[nH]c2n1 . Reported inhibition?
output: -0.55

input: Entry under review: O=C1NC(=O)C(c2ccc(Cl)cc2)=C1Nc1ccc(Cl)c(C(=O)O)c1 . Reported inhibition?
output: -1.78

input: Entry under review: CC1=C(C(=O)Nc2ccc3[nH]ncc3c2)C(c2ccc(Cl)c(Cl)c2)CC(=O)N1 (stereo unspecified) . Reported inhibition?
output: 3.19

input: Entry under review: Cc1cccc(-c2n[nH]cc2-c2ccc3ncccc3n2)n1 . Reported inhibition?
output: 0.3

input: Entry under review: Cn1cc(C=C2C(=O)Nc3cccnc32)c2ccccc21 . Reported inhibition?
output: 5.21

input: Entry under review: CC(=O)Nc1cccc(C#Cc2cncnc2Nc2ccc(OCc3cccc(F)c3)c(Cl)c2)n1 . Reported inhibition?
output: 3.46

input: Entry under review: NC(=O)c1cccc(Nc2nccc(Nc3cccc4[nH]ncc34)n2)c1 . Reported inhibition?
output: 39.2

input: Entry under review: CCN1CCC(CC(=O)Nc2n[nH]c3nc(-c4cccs4)c(Br)cc23)CC1 . Reported inhibition?
output: -1.4

input: Entry under review: CS(=O)(=O)Nc1ccc(N/C=C2\C(=O)Nc3ccccc32)cc1 . Reported inhibition?
output: 6.66

input: Entry under review: O=C1NC(=O)C(c2cccc(Cl)c2)=C1Nc1ccc(O)c(Cl)c1 . Reported inhibition?
output: 1.02

input: Entry under review: COc1ccccc1Nc1ncc(-c2ccccc2)o1 . Reported inhibition?
output: 3.63

input: Entry under review: CCn1c(-c2nonc2N)nc2cncc(C(=O)N3CCNCC3)c21 . Reported inhibition?
output: -0.51

input: Entry under review: COc1ccc(-c2nn3ncccc3c2-c2ccnc(Nc3ccc(Cl)c(C(F)(F)F)c3)n2)cc1 . Reported inhibition?
output: 0.61

input: Entry under review: CS(=O)(=O)CCNCc1ccc(-c2ccc3ncnc(Nc4ccc(OCc5cccc(F)c5)c(C(F)(F)F)c4)c3c2)o1 . Reported inhibition?
output: 0.77

input: Entry under review: CCCN1CCC(Oc2cc(Nc3nc(Nc4cccc(F)c4C(N)=O)c4cc[nH]c4n3)c(OC)cc2Cl)CC1 . Reported inhibition?
output: 2.93

input: Entry under review: COc1cc2ncn(-c3cc(O[C@H](C)c4ccccc4Cl)c(C(N)=O)s3)c2cc1OC . Reported inhibition?
output: 4.62

input: Entry under review: CN1CCC(C(=O)Nc2n[nH]c3nnc(-c4ccccc4)cc23)CC1 . Reported inhibition?
output: 4.39
